Test system: Mus musculus
ASSAY_OVERVIEW: The Neurologic toxicity by measuring rotarod test after 0.5 h; Not active up to 300 mg/kg
Type: organism-based
Set-up: dose 300 mg/kg
EXPERIMENTAL_PARAMETERS: in vivo
TEST_READOUT: Toxicity

Consider the reported Toxicity for these compounds:
{"columns": ["COMPOUND", "MEAS_VALUE"],
 "data": [
  ["O=C1CCC(Cc2ccc(Cl)c(Cl)c2)C(=O)N1 (stereo not drawn)", "Not Active"],
  ["CN1C(=O)CCC(Cc2ccc(I)cc2)C1=O (stereo not drawn)", "Not Active"],
  ["CN1C(=O)CCC(Cc2ccc(Br)cc2)C1=O (stereo not drawn)", "Not Active"],
  ["CN1C(=O)CCC(Cc2ccccc2)C1=O (stereo not drawn)", "Not Active"],
  ["CN1C(=O)CCC(Cc2ccccc2Br)C1=O (stereo not drawn)", "Not Active"],
  ["CN1C(=O)CCC(Cc2ccc(C(F)(F)F)cc2)C1=O (stereo not drawn)", "Not Active"],
  ["CN1C(=O)CCC(Cc2ccc(Cl)cc2Cl)C1=O (stereo not drawn)", "Not Active"]
]}

Test system Mus musculus; read-out Toxicity; what value for O=C1CCC(Cc2ccc(-c3ccccc3)cc2)C(=O)N1 (stereo not drawn) ? Not Active
